Every entry's value here was drawn from patent US8470872B2.

Target: ERβ (Homo sapiens, UniProt Q92731)
Sequence (Q92731 whole entry, species assumed): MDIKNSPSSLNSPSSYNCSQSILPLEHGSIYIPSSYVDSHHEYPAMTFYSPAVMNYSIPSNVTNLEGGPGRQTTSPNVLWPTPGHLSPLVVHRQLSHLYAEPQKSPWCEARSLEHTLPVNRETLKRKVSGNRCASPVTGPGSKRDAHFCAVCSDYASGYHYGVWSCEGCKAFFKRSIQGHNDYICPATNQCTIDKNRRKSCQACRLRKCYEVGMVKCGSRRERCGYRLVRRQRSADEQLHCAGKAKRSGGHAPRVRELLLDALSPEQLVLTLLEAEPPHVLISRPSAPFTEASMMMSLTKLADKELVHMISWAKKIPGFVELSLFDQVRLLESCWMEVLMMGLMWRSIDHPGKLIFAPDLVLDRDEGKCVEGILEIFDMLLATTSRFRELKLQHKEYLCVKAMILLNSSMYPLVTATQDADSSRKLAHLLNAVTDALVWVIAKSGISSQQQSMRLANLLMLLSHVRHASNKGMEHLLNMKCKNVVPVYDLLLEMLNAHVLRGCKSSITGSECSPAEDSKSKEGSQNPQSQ
Assay: Luciferase reporter gene assay (3*ERE) in HEK293 cells, ERβ
Format: cell-based
Details: 48 hours with test compounds
Label fulfilled when Luciferase ERβ % Eff is at or above 90%; anything below gets not fulfilled.

molecule="Oc1ccc(C23CCCCCC2Oc2c(F)cccc23)cc1 (stereo not shown) [Compound 447]" assigned_category=fulfilled
molecule="Oc1ccc(C23CCCCC2Oc2cccc(F)c23)cc1 (stereo not shown) [Compound 130]" assigned_category=fulfilled
molecule="Oc1ccc(C23CCCCCC2Oc2cccc(F)c23)cc1 (single isomer, unassigned) [Compound 232]" assigned_category="not fulfilled"
molecule="Oc1ccc(C23CCCCCC2Oc2ccc(F)cc23)cc1 (stereo not shown) [Compound 448]" assigned_category=fulfilled
molecule="Oc1ccc(C23CCCCCC2Oc2cccc(F)c23)cc1 (single isomer, unassigned) [Compound 231]" assigned_category=fulfilled
molecule="Oc1ccc(C23CCCCC2Oc2ccccc23)cc1 (stereo not shown) [Compound 961]" assigned_category="not fulfilled"
molecule="Oc1ccc(C23CCCCCC2Oc2ccccc23)cc1 (stereo not shown) [Compound 807]" assigned_category="not fulfilled"

----------
Target: ERβ (Homo sapiens)
Assay: R-SAT (Receptor Selection and Amplification Technology) functional assay, ERβ
Assay type: cell-based
Set-up: expressed in transfected cells; host or cells: NIH-3T3 fibroblasts, transient transfection
Conditions: NIH-3T3 fibroblasts transfected with receptor; na = not active; read-out: R-SAT ERβ pEC50 (converted)
Readout: EC50 (nM)

compound="Oc1ccc(C23CCCCC2Oc2ccccc23)cc1 (centres unmarked) [Compound 961]" units_text=nM data_value=10
compound="Oc1ccc(C23CCCCCC2Oc2ccc(F)cc23)cc1 (centres unmarked) [Compound 448]" units_text=nM data_value=1.26
compound="Oc1ccc(C23CCCCCC2Oc2cccc(F)c23)cc1 (single isomer, unassigned) [Compound 231]" units_text=nM data_value=1
compound="Oc1ccc(C23CCCCCC2Oc2cccc(F)c23)cc1 (single isomer, unassigned) [Compound 232]" units_text=nM data_value=10
compound="Oc1ccc(C23CCCCCC2Oc2c(F)cccc23)cc1 (centres unmarked) [Compound 447]" units_text=nM data_value=5.01
compound="Oc1ccc(C23CCCCCC2Oc2cccc(F)c23)cc1 (single isomer, unassigned) [Compound 982]" units_text=nM data_value=0.0501
compound="Oc1ccc(C23CCCCCC2Oc2ccccc23)cc1 (centres unmarked) [Compound 807]" units_text=nM data_value=1.26
compound="Oc1ccc(C23CCCCC2Oc2cccc(F)c23)cc1 (centres unmarked) [Compound 130]" units_text=nM data_value=6.31

----------
Molecular target: ERα (Homo sapiens)
Assay: Luciferase reporter gene assay (3*ERE) in HEK293 cells, ERα
Type: cell-based
Conditions: 48 hours with test compounds, read-out: Luciferase ERα pEC50 (converted)
Quick rule for you: EC50 under 600 nM gets class 1, anything else gets class 0.

molecule="Oc1ccc(C23CCCCCC2Oc2ccc(F)cc23)cc1 (stereo not shown)" assigned_category="class 1"
molecule="Oc1ccc(C23CCCCCC2Oc2cccc(F)c23)cc1 (single isomer, unassigned) [Compound 231]" assigned_category="class 1"
molecule="Oc1ccc(C23CCCCC2Oc2cccc(F)c23)cc1 (stereo not shown)" assigned_category="class 0"
molecule="Oc1ccc(C23CCCCCC2Oc2c(F)cccc23)cc1 (stereo not shown)" assigned_category="class 1"
molecule="Oc1ccc(C23CCCCCC2Oc2cccc(F)c23)cc1 (single isomer, unassigned) [Compound 232]" assigned_category="class 0"
molecule="Oc1ccc(C23CCCCC2Oc2ccccc23)cc1 (stereo not shown)" assigned_category="class 0"
molecule="Oc1ccc(C23CCCCCC2Oc2ccccc23)cc1 (stereo not shown)" assigned_category="class 1"

----------
Biological target: ERβ (Homo sapiens, UniProt Q92731)
Test: R-SAT (Receptor Selection and Amplification Technology) functional assay, ERβ
Type: cell-based
Parameters: expressed in transfected cells; host or cells: NIH-3T3 fibroblasts, transient transfection
Settings: NIH-3T3 fibroblasts transfected with receptor; na = not active
R-SAT ERβ % Eff values by entry
Readout: R-SAT ERβ % Eff (%)

compound="Oc1ccc(C23CCCCC=C2Oc2cccc(F)c23)cc1 (centres unmarked)" data_value=24
compound="Oc1ccc(C23CCCCC2Oc2ccccc23)cc1 (centres unmarked)" data_value=100
compound="Oc1ccc(C23CCCCCC2Oc2cccc(F)c23)cc1 (single isomer, unassigned) [Compound 231]" data_value=91
compound="Oc1ccc(C23CCCCCC2Oc2cccc(F)c23)cc1 (single isomer, unassigned) [Compound 232]" data_value=76
compound="Oc1ccc(C23CCCCCC2Oc2ccc(F)cc23)cc1 (centres unmarked)" data_value=83

----------
Target: ERα (Homo sapiens)
Assay: R-SAT (Receptor Selection and Amplification Technology) functional assay, ERα
Type: cell-based
Design: expressed in transfected cells; host or cells: NIH-3T3 fibroblasts, transient transfection
Conditions: NIH-3T3 fibroblasts transfected with receptor; na = not active; read-out: R-SAT ERα pEC50 (converted)
Excerpt: R-SAT® (Receptor Selection and Amplification Technology) is a cell-based functional assay that allows one to monitor receptor-dependent proliferative responses and has been described elsewhere. The technology has been validated for a number of receptors including GPCRs (Brauner-Osborne and Brann 1996), RTKs (Burstein et al. 1998), cytokine receptors (Piu et al. 2002) and nuclear receptors (Piu et al. 2005; Piu et al. 2006). […] Plates were read using a microplate reader at 420 nm. […]
Each record is given 1.0 if its reported EC50 is strictly below 400 nM. Records at or above 400 nM are given 0.0.

compound="Oc1ccc(C23CCCCCC2Oc2cccc(F)c23)cc1 (single isomer, unassigned) [Compound 231]" assigned_category=1.0
compound="Oc1ccc(C23CCCCCC2Oc2cccc(F)c23)cc1 (single isomer, unassigned) [Compound 982]" assigned_category=1.0
compound="Oc1ccc(C23CCCCC2Oc2ccccc23)cc1 (centres unmarked)" assigned_category=0.0
compound="Oc1ccc(C23CCCCCC2Oc2cccc(F)c23)cc1 (single isomer, unassigned) [Compound 232]" assigned_category=0.0
compound="Oc1ccc(C23CCCCC2Oc2cccc(F)c23)cc1 (centres unmarked)" assigned_category=0.0

----------
Biological target: ERβ (Homo sapiens)
Test: R-SAT (Receptor Selection and Amplification Technology) functional assay, ERβ
Assay type: cell-based
Design: expressed in transfected cells; host or cells: NIH-3T3 fibroblasts, transient transfection
Settings: NIH-3T3 fibroblasts transfected with receptor; na = not active
Readout: R-SAT ERβ % Eff (%)

compound="Oc1ccc(C23CCCCCC2Oc2c(F)cccc23)cc1 (stereo not shown) [Compound 447]" readout="R-SAT ERβ % Eff" units_text=% data_value=85
compound="Oc1ccc(C23CCCCCC2Oc2ccccc23)cc1 (stereo not shown) [Compound 807]" readout="R-SAT ERβ % Eff" units_text=% data_value=99
compound="Oc1ccc(C23CCCCCC2Oc2cccc(F)c23)cc1 (single isomer, unassigned) [Compound 982]" readout="R-SAT ERβ % Eff" units_text=% data_value=87
compound="Oc1ccc(C23CCCCC2Oc2cccc(F)c23)cc1 (stereo not shown) [Compound 130]" readout="R-SAT ERβ % Eff" units_text=% data_value=97

----------
Molecular target: ERα (Homo sapiens, UniProt P03372)
Sequence (P03372 1-595): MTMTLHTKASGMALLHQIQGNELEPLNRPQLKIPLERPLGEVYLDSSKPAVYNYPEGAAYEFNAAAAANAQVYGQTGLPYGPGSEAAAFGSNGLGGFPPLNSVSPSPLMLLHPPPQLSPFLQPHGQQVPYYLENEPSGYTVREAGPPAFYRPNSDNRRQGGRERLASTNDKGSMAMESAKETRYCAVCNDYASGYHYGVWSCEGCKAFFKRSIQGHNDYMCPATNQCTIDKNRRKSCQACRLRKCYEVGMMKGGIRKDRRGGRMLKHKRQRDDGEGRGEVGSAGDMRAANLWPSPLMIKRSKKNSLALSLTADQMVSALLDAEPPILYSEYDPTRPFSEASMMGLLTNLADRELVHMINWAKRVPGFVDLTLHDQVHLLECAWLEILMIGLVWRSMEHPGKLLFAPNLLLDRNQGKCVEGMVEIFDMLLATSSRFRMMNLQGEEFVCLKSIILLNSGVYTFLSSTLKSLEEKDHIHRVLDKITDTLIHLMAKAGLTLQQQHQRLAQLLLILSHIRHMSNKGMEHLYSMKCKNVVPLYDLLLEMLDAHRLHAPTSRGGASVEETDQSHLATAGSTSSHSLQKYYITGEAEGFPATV
Experiment: Luciferase reporter gene assay (3*ERE) in HEK293 cells, ERα
Assay type: cell-based
Settings: 48 hours with test compounds
Binary classification by Luciferase ERα % Eff, with 50% as an inclusive lower bound for 1; all other cases are 0.

molecule="Oc1ccc(C23CCCCC=C2Oc2cccc(F)c23)cc1 (centres unmarked)" assigned_category=0
molecule="Oc1ccc(C23CCCCCC2Oc2cccc(F)c23)cc1 (single isomer, unassigned) [Compound 232]" assigned_category=0
molecule="Oc1ccc(C23CCCCC2Oc2ccccc23)cc1 (centres unmarked)" assigned_category=1
molecule="Oc1ccc(C23CCCCCC2Oc2ccc(F)cc23)cc1 (centres unmarked)" assigned_category=0
molecule="Oc1ccc(C23CCCCCC2Oc2c(F)cccc23)cc1 (centres unmarked)" assigned_category=0
molecule="Oc1ccc(C23CCCCCC2Oc2cccc(F)c23)cc1 (single isomer, unassigned) [Compound 231]" assigned_category=0
